# experimentNotes: Pharmacokinetic study of the Q-markers in beagle dogs
# conditionSummary: beagle, dog, in vivo, po
measuredParameter: bioavailability (%)
All answers are understood in %, so give the number only.

Exam item: Given the entry COc1ccc2c(c1OC)CN(C)CCc1cc3c(cc1C(=O)C2)OCO3 [α-allocryptopine] , report its measured bioavailability.
Marked response: 7.5

----------
Hi there, I'd appreciate the recorded Tmax for every entry that follows.
# experimentNotes: Pharmacokinetic study of the Q-markers in beagle dogs
# conditionSummary: beagle, dog, plasma, po
Record the result as number plus unit.

Exam item: Given the entry COc1cc2c(cc1OC)[C@@H]1Cc3ccc(OC)c(OC)c3CN1CC2 [Tetrahydropalmatine, tetrahydropalmatine] , report its measured Tmax.
Marked response: 1.5 h

Exam item: Param item: "COc1c2ccoc2c(OC[C@@H](O)C(C)(C)O)c2oc(=O)ccc12"
Marked response: 1 h

Exam item: Param item: "COc1cc2c(cc1OC)[C@H]1[C@@H](C)c3ccc(OC)c(OC)c3CN1CC2"
Marked response: 1.5 h

----------
# experimentNotes: Solubility of Q-markers in dissolution media, dose number D0
# conditionSummary: acetate buffer, 37 °C, pH 4.5, aqueous buffer, thermodynamic from solid
Hi there, I'd appreciate the recorded solubility at 24 h for every entry that follows.
All answers are understood in µg/mL, so give the number only.

Exam item: Given the entry "COc1c2ccoc2c(OC[C@@H](O)C(C)(C)O)c2oc(=O)ccc12" , report its measured solubility at 24 h.
Marked response: 1290

Exam item: Param item: COc1cc2c(cc1OC)[C@@H]1Cc3ccc(OC)c(OC)c3CN1CC2 [Tetrahydropalmatine, tetrahydropalmatine]
Marked response: 2670

Exam item: Param item: "COc1ccc2c(c1OC)CN(C)CCc1cc3c(cc1C(=O)C2)OCO3"
Marked response: 45.8

----------
# experimentNotes: Pharmacokinetic study of the Q-markers in beagle dogs
# conditionSummary: beagle, dog, in vivo, po
measuredParameter: Tmax (h)
All answers are understood in h, so give the number only.

Exam item: Given the entry "COc1ccc2c(c1OC)CN(C)CCc1cc3c(cc1C(=O)C2)OCO3" , report its measured Tmax.
Marked response: 1

----------
# experimentNotes: Solubility of Q-markers in dissolution media, dose number D0
# conditionSummary: phosphate buffer, 37 °C, pH 6.8, aqueous buffer, thermodynamic from solid
Hi there, I'd appreciate the recorded solubility at 24 h for every entry that follows.
All answers are understood in µg/mL, so give the number only.

Exam item: Given the entry COc1cc2c(cc1OC)[C@@H]1Cc3ccc(OC)c(OC)c3CN1CC2 [Tetrahydropalmatine, tetrahydropalmatine] , report its measured solubility at 24 h.
Marked response: 19.7

Exam item: Param item: "COc1ccc2c(c1OC)CN(C)CCc1cc3c(cc1C(=O)C2)OCO3"
Marked response: 44.7

Exam item: Param item: "COc1cc2c(cc1OC)[C@H]1[C@@H](C)c3ccc(OC)c(OC)c3CN1CC2"
Marked response: 2380

Exam item: Param item: "COc1c2ccoc2c(OC[C@@H](O)C(C)(C)O)c2oc(=O)ccc12"
Marked response: 7.63

----------
# experimentNotes: Pharmacokinetic study of the Q-markers in beagle dogs
# conditionSummary: beagle, dog, in vivo, po
measuredParameter: half-life (h)
All answers are understood in h, so give the number only.

Exam item: Given the entry "COc1ccc2c(c1OC)CN(C)CCc1cc3c(cc1C(=O)C2)OCO3" , report its measured half-life.
Marked response: 8.39

----------
# experimentNotes: Pharmacokinetic study of the Q-markers in beagle dogs
# conditionSummary: beagle, dog, plasma, po
measuredParameter: Cmax (ng/mL)
All answers are understood in ng/mL, so give the number only.

Exam item: Given the entry "COc1cc2c(cc1OC)[C@H]1[C@@H](C)c3ccc(OC)c(OC)c3CN1CC2" , report its measured Cmax.
Marked response: 24.8

Exam item: Param item: COc1cc2c(cc1OC)[C@@H]1Cc3ccc(OC)c(OC)c3CN1CC2 [Tetrahydropalmatine, tetrahydropalmatine]
Marked response: 45.7

Exam item: Param item: "COc1c2ccoc2c(OC[C@@H](O)C(C)(C)O)c2oc(=O)ccc12"
Marked response: 27.3

----------
# experimentNotes: Pharmacokinetic study of the Q-markers in beagle dogs
# conditionSummary: beagle, dog, in vivo, po
measuredParameter: AUC(0-inf) (ng·h/mL)
All answers are understood in ng·h/mL, so give the number only.

Exam item: Given the entry COc1ccc2c(c1OC)CN(C)CCc1cc3c(cc1C(=O)C2)OCO3 [α-allocryptopine] , report its measured AUC(0-inf).
Marked response: 9.12

----------
# experimentNotes: Pharmacokinetic study of the Q-markers in beagle dogs
# conditionSummary: beagle, dog, in vivo, iv
measuredParameter: AUC(0-t) (ng·h/mL)
All answers are understood in ng·h/mL, so give the number only.

Exam item: Given the entry "COc1ccc2c(c1OC)CN(C)CCc1cc3c(cc1C(=O)C2)OCO3" , report its measured AUC(0-t).
Marked response: 35.9

----------
# experimentNotes: Pharmacokinetic study of the Q-markers in beagle dogs
# conditionSummary: beagle, dog, plasma, iv
measuredParameter: Cmax (ng/mL)
All answers are understood in ng/mL, so give the number only.

Exam item: Given the entry "COc1cc2c(cc1OC)[C@H]1[C@@H](C)c3ccc(OC)c(OC)c3CN1CC2" , report its measured Cmax.
Marked response: 5.01

Exam item: Param item: "COc1c2ccoc2c(OC[C@@H](O)C(C)(C)O)c2oc(=O)ccc12"
Marked response: 11.8

Exam item: Param item: COc1cc2c(cc1OC)[C@@H]1Cc3ccc(OC)c(OC)c3CN1CC2 [Tetrahydropalmatine, tetrahydropalmatine]
Marked response: 11.4

----------
Hi there, I'd appreciate the recorded AUC for every entry that follows.
# experimentNotes: Pharmacokinetic study of the Q-markers in beagle dogs
# conditionSummary: beagle, dog, plasma, po
Record the result as number plus unit.

Exam item: Given the entry "COc1c2ccoc2c(OC[C@@H](O)C(C)(C)O)c2oc(=O)ccc12" , report its measured AUC.
Marked response: 59.7 ng·h/mL

Exam item: Param item: COc1cc2c(cc1OC)[C@@H]1Cc3ccc(OC)c(OC)c3CN1CC2 [Tetrahydropalmatine, tetrahydropalmatine]
Marked response: 136 ng·h/mL

Exam item: Param item: "COc1cc2c(cc1OC)[C@H]1[C@@H](C)c3ccc(OC)c(OC)c3CN1CC2"
Marked response: 74.2 ng·h/mL

----------
Hi there, I'd appreciate the recorded solubility at 24 h for every entry that follows.
# experimentNotes: Solubility of Q-markers in dissolution media, dose number D0
# conditionSummary: 0.1 M HCl, 37 °C, pH 1.2, simulated gastric fluid, thermodynamic from solid
All answers are understood in µg/mL, so give the number only.

Exam item: Given the entry "COc1ccc2c(c1OC)CN(C)CCc1cc3c(cc1C(=O)C2)OCO3" , report its measured solubility at 24 h.
Marked response: 48.7

Exam item: Param item: "COc1c2ccoc2c(OC[C@@H](O)C(C)(C)O)c2oc(=O)ccc12"
Marked response: 2660

Exam item: Param item: COc1cc2c(cc1OC)[C@@H]1Cc3ccc(OC)c(OC)c3CN1CC2 [Tetrahydropalmatine, tetrahydropalmatine]
Marked response: 655

----------
Hi there, I'd appreciate the recorded Cmax for every entry that follows.
# experimentNotes: External validation of IVIVC model with another brand of YZTs
# conditionSummary: beagle, dog, blood, po
All answers are understood in ng/mL, so give the number only.

Exam item: Given the entry "COc1ccc2c(c1OC)CN(C)CCc1cc3c(cc1C(=O)C2)OCO3" , report its measured Cmax.
Marked response: 0.5

Exam item: Param item: "COc1c2ccoc2c(OC[C@@H](O)C(C)(C)O)c2oc(=O)ccc12"
Marked response: 29.6

Exam item: Param item: "COc1cc2c(cc1OC)[C@H]1[C@@H](C)c3ccc(OC)c(OC)c3CN1CC2"
Marked response: 12

Exam item: Param item: COc1cc2c(cc1OC)[C@@H]1Cc3ccc(OC)c(OC)c3CN1CC2 [Tetrahydropalmatine, tetrahydropalmatine]
Marked response: 16.4

----------
# experimentNotes: Pharmacokinetic study of the Q-markers in beagle dogs
# conditionSummary: beagle, dog, plasma, po
measuredParameter: half-life (h)
All answers are understood in h, so give the number only.

Exam item: Given the entry COc1cc2c(cc1OC)[C@H]1[C@@H](C)c3ccc(OC)c(OC)c3CN1CC2 [Corydaline, corydaline] , report its measured half-life.
Marked response: 8.74

Exam item: Param item: COc1cc2c(cc1OC)[C@@H]1Cc3ccc(OC)c(OC)c3CN1CC2 [Tetrahydropalmatine, tetrahydropalmatine]
Marked response: 3.9

Exam item: Param item: COc1c2ccoc2c(OC[C@@H](O)C(C)(C)O)c2oc(=O)ccc12 [Byakangelicin, byakangelicin]
Marked response: 3.29

----------
# experimentNotes: Pharmacokinetic study of the Q-markers in beagle dogs
# conditionSummary: beagle, dog, in vivo, iv
# Description: An ACQUITY UPLC system from Waters was used for chromatography separation, equipped with a Waters Cortecs C18 column (1.7 μm, 2.1 mm × 50 mm) operated at a flow rate of 0.30 mL/min. The column temperature and auto-sampler temperature were set as 45 °C and 4 °C, respectively. […]
measuredParameter: Cmax
Record the result as number plus unit.

Exam item: Given the entry "COc1ccc2c(c1OC)CN(C)CCc1cc3c(cc1C(=O)C2)OCO3" , report its measured Cmax.
Marked response: 32.8 ng/mL
